Consider the following molecules; for each one, report its PDI D-7.
assay: Stability of mRNA-LNPs according to storage temperature and duration; format: physicochemical; conditions: fLuc mRNA-LNP stored at 25° C., day 7

Consider the reported PDI D-7 for these molecules:
molecule	obs-value
CCCCCCCCCCCOC(=O)CCCCCN(CCCCCCCC(=O)OC(CCCCCCCC)CCCCCCCC)CC(O)CCCCNC(=O)c1cccn1C (stereo not shown)	0.016
CCCCCCCCCCCOC(=O)CCCCCN(CCCCCCCC(=O)OC(CCCCCCCC)CCCCCCCC)CC(O)CCCCNC(=O)c1cn(C)cn1 (stereo not shown)	0.087
CCCCC/C=C\C/C=C\CCCCCCCCC(CCCCCCCC/C=C\C/C=C\CCCCC)OC(=O)CCCN(C)C [MC3, DLin-MC3-DMA, reference compound]	0.110

# return PDI D-7 for each item in the list
1. CCCCCCCCCCCOC(=O)CCCCCN(CCCCCCCC(=O)OC(CCCCCCCC)CCCCCCCC)CC(O)CCCCNC(=O)c1c[nH]c(O)n1 (stereo not shown)
2. CCCCCCCCCCCOC(=O)CCCCCN(CCCCCCCC(=O)OC(CCCCCCCC)CCCCCCCC)CC(O)CCCCNC(=O)c1cnc(O)n1C (stereo not shown)

1. 0.098
2. 0.112

# return PDI D-7 for each item in the list
1. CCCCCCCCCCCOC(=O)CCCCCN(CCCCCCCC(=O)OC(CCCCCCCC)CCCCCCCC)CC(O)CCCCNC(=O)c1ncc[nH]1 (stereo not shown)
2. CCCCCCCCCCCOC(=O)CCCCCN(CCCCCCCC(=O)OC(CCCCCCCC)CCCCCCCC)CC(O)CCCCNC(=O)c1cc[nH]c1 (stereo not shown)

[0.133, 0.114]

---

assay: Stability of mRNA-LNPs according to storage temperature and duration; type: physicochemical; details: fLuc mRNA-LNP stored at 4° C., day 30
Consider the following molecules; for each one, report its Normalized EE % D-30.
Answers are plain numbers, in %.

# return Normalized EE % D-30 for each item in the list
1. CCCCCCCCCCCOC(=O)CCCCCN(CCCCCCCC(=O)OC(CCCCCCCC)CCCCCCCC)CC(O)CCCCNC(=O)c1cncn1C (stereo not drawn)
2. CCCCCCCCCCCOC(=O)CCCCCN(CCCCCCCC(=O)OC(CCCCCCCC)CCCCCCCC)CC(O)CCCCNC(=O)c1cn(C)cn1 (stereo not drawn)
3. CCCCCCCCCCCOC(=O)CCCCCN(CCCCCCCC(=O)OC(CCCCCCCC)CCCCCCCC)CC(O)CCCCNC(=O)c1ccc[nH]1 (stereo not drawn)

1. 87.6
2. 90.0
3. 86.9

---

Consider the following compounds; for each one, report its EE (%).
Assay: mRNA encapsulation efficiency (Quant-IT RiboGreen RNA assay)
Type: physicochemical
Settings: mRNA encapsulation efficiency of mRNA-LNP made with the ionizable lipid; average of two measurements
Protocol: The mRNA encapsulation efficiency (EE, %) of LNPs containing mRNA was measured using the Quant-IT™ RiboGreen® RNA assay kit (Invitrogen, USA). The diluted samples were added to each well of a 96-well plate. […] The fluorescence intensities of Group A and Group B were measured using a multi-plate reader (λex 480 nm, λem 520 nm), and mRNA encapsulation efficiency (%) was calculated using Equation 1 below. […]
Answers are plain numbers, in %.

Consider the reported EE (%) for these compounds:
compound	EE (%)
CCCCCCCCCCCOC(=O)CCCCCN(CCCCCCCC(=O)OC(CCCCCCCC)CCCCCCCC)CC(O)CCCCNC(=O)c1[nH]ccc1O (stereo not drawn)	92
CCCCCCCCCCCOC(=O)CCCCCN(CCCCCCCC(=O)OC(CCCCCCCC)CCCCCCCC)CC(O)CCCCNC(=O)c1cn(C)cn1 (stereo not drawn)	89
CCCCCCCCCCCOC(=O)CCCCCN(CCCCCCCC(=O)OC(CCCCCCCC)CCCCCCCC)CC(O)CCCCNC(=O)c1cc[nH]c1 (stereo not drawn)	94

# return EE (%) for each item in the list
1. CCCCCCCCCCCOC(=O)CCCCCN(CCCCCCCC(=O)OC(CCCCCCCC)CCCCCCCC)CC(O)CCCCNC(=O)c1ccn(C)c1 (stereo not drawn)
2. CCCCCCCCCCCOC(=O)CCCCCN(CCCCCCCC(=O)OC(CCCCCCCC)CCCCCCCC)CC(O)CCCCNC(=O)c1ncc[nH]1 (stereo not drawn)
3. CCCCCCCCCCCOC(=O)CCCCCN(CCCCCCCC(=O)OC(CCCCCCCC)CCCCCCCC)CC(O)CCCCNC(=O)c1c(O)ccn1C (stereo not drawn)

1. 93
2. 90
3. 90
